Test target: porcine endothelin converting enzyme (Sus scrofa)
Construct: partially purified from porcine primary aortic endothelial cells by DE52 anion exchange column; endogenous in cells
Sequence (A0A8W4FBH0 1-751): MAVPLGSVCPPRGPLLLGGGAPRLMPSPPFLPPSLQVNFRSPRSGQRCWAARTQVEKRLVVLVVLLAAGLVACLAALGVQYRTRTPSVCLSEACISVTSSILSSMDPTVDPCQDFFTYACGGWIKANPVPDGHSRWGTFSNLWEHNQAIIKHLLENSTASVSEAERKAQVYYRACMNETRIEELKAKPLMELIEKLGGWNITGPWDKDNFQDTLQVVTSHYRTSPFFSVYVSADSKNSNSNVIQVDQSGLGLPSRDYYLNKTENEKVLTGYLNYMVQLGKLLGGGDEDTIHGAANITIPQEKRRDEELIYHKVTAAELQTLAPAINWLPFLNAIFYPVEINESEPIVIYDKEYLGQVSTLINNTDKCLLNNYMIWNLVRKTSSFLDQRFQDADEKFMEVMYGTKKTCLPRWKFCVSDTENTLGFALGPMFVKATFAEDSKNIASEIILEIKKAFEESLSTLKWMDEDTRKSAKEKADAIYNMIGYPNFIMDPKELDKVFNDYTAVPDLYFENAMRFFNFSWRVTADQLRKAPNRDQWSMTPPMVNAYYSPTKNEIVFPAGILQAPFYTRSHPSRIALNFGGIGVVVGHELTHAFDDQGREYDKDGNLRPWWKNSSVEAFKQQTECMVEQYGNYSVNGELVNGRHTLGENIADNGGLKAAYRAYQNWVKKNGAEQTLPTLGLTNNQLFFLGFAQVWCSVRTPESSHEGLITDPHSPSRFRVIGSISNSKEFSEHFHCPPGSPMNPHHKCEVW
Experiment summary: in vitro inhibition of porcine endothelin-converting enzyme (ECE)
Settings: partially purified from porcine primary aortic endothelial cells
pIC50: −log10 of the molar value.
Experimental readout: pIC50

QUERY: Lab note: record pIC50 of O=P(O)(O)CN[C@@H](Cc1ccc(-c2ccccc2)cc1)c1nnn[nH]1 tested on porcine endothelin converting enzyme (Sus scrofa).
RESULT: ~5.96
